# Lookup of reported MIC E. coli tolC keyed by entry
# System: E. coli tolC mutants
# assay.procedure: Broth microdilution MIC testing
# Assay type: cell-based, Escherichia coli
# recorded.conditions: E. coli tolC mutants

compound: COc1ccc(CN2CCc3nc(-c4ccccn4)[nH]c(=O)c3C2)cc1O [Compound 323217]
system.tested: E. coli tolC mutants
measurement.kind: MIC E. coli tolC
observed.result: > 128 µg/mL

compound: COc1cc(CN2CCc3nc(-c4ccccn4)[nH]c(=O)c3C2)ccc1OCCO [Compound 323214]
system.tested: E. coli tolC mutants
measurement.kind: MIC E. coli tolC
observed.result: > 128 µg/mL

compound: COc1ccc(CN2CCc3nc(-c4ccccn4)[nH]c(=O)c3C2)cc1Cn1cccn1 [Compound 323234]
system.tested: E. coli tolC mutants
measurement.kind: MIC E. coli tolC
observed.result: > 128 µg/mL

compound: CC(=O)Oc1ccc(CN2CCc3nc(-c4ccccn4)[nH]c(=O)c3C2)cc1 [Compound 323238]
system.tested: E. coli tolC mutants
measurement.kind: MIC E. coli tolC
observed.result: > 128 µg/mL

compound: Cc1cc2c(cc1CN1CCc3nc(-c4ccccn4)[nH]c(=O)c3C1)OCO2 [Compound 323207]
system.tested: E. coli tolC mutants
measurement.kind: MIC E. coli tolC
observed.result: > 128 µg/mL

# input compound: O=C1CCCN1c1ccc(CN2CCc3nc(-c4ccccn4)[nH]c(=O)c3C2)cc1 [Compound 323211] ; wanted: its MIC E. coli tolC > 128 µg/mL

# input compound: Cn1c(=O)n(C)c2cc(CN3CCc4nc(-c5ccccn5)[nH]c(=O)c4C3)ccc21 [Compound 323213] ; wanted: its MIC E. coli tolC > 128 µg/mL

====

# System: bacterial protein synthesis (aminoacylation/translation system)
# assay.procedure: aminoacylation/translation (A/T) assay
# Assay type: biochemical
# recorded.conditions: A/T assay, Table 1; read-out: IC50
pIC50: −log10 of the molar value.
pIC50 of 6 or higher: 1 (yes). Under 6: 0 (no).

smiles: COc1ccc(CN2CCc3nc(-c4ccccn4)[nH]c(=O)c3C2)c(OC)c1O
label: 0 (no)
//
smiles: CN(C)c1ccc(CN2CCc3nc(-c4ccccn4)[nH]c(=O)c3C2)cc1
label: 1 (yes)
//
smiles: O=c1[nH]c(-c2ccccn2)nc2c1CN(CCc1ccc(Cl)cc1)CC2
label: 1 (yes)
//
smiles: CCN(CC)Cc1cc(CN2CCc3nc(-c4ccccn4)[nH]c(=O)c3C2)ccc1OC
label: 0 (no)
//
smiles: Oc1nc(-c2ccncc2)nc2c1CN(Cc1cccc(F)c1)CC2
label: 0 (no)

Answer whether pIC50 of COc1cc(CN2CCc3nc(-c4ccccn4)[nH]c(=O)c3C2)ccc1OCC(N)=O is greater than or equal to 6. 1 (yes)

Answer whether pIC50 of COc1ccccc1CN1CCc2nc(-c3ccccn3)nc(O)c2C1 is greater than or equal to 6. 0 (no)

====

# Tested on: bacterial protein synthesis (aminoacylation/translation system)
# assay.procedure: aminoacylation/translation (A/T) assay
# Assay type: biochemical
# recorded.conditions: A/T assay, Table 1; read-out: IC50
# Lookup of reported IC50 keyed by entry

// below: answered molecules
molecule: COc1cc(CN2CCc3nc(-c4ccccn4)[nH]c(=O)c3C2)cc2c1OCO2 [Compound 323205]
system.tested: bacterial protein synthesis (aminoacylation/translation system)
IC50: > 300 µM
//
molecule: O=c1[nH]c(-c2ccco2)nc2c1CN(Cc1ccc(Cl)cc1)CC2 [Compound 332053]
system.tested: bacterial protein synthesis (aminoacylation/translation system)
IC50: > 300 µM
//
molecule: CC(=O)Nc1ccc(CN2CCc3nc(-c4ccccn4)[nH]c(=O)c3C2)cc1 [Compound 323222]
system.tested: bacterial protein synthesis (aminoacylation/translation system)
IC50: > 300 µM
//
molecule: COc1ccc(OC)c(CN2CCc3nc(-c4ccccn4)[nH]c(=O)c3C2)c1 [Compound 323191]
system.tested: bacterial protein synthesis (aminoacylation/translation system)
IC50: > 300 µM
//
molecule: O=c1[nH]c(-c2ccccn2)nc2c1CN(Cc1cc(F)ccc1F)CC2 [Compound 323228]
system.tested: bacterial protein synthesis (aminoacylation/translation system)
IC50: 0.3 µM

# input molecule: O=c1[nH]c(-c2ccccn2)nc2c1CN(Cc1cc(F)cc(F)c1)CC2 [Compound 323230] ; wanted: its IC50 2 µM

# input molecule: O=c1[nH]c(-c2ccccn2)nc2c1CN(Cc1ccccc1OCc1ccccn1)CC2 [Compound 323192] ; wanted: its IC50 > 300 µM

# input molecule: O=c1[nH]c(-c2ccccn2)nc2c1CN(Cc1cc(Cl)cc(Cl)c1)CC2 [Compound 323339] ; wanted: its IC50 19 µM

# input molecule: Oc1ccccc1CN1CCc2nc(-c3ccccn3)nc(O)c2C1 [Compound 321522] ; wanted: its IC50 2.6 µM

# input molecule: CN(C)Cc1ccc(CN2CCc3nc(-c4ccccn4)[nH]c(=O)c3C2)cc1 [Compound 323201] ; wanted: its IC50 2.1 µM

# input molecule: COc1cccc(CN2CCc3nc(-c4ccccn4)[nH]c(=O)c3C2)c1O [Compound 323197] ; wanted: its IC50 4.4 µM

# input molecule: O=c1[nH]c(-c2ccccn2)nc2c1CN(Cc1cccc(O)c1O)CC2 [Compound 323196] ; wanted: its IC50 1.6 µM

# input molecule: COc1cccc(CN2CCc3nc(-c4ccncc4)nc(O)c3C2)c1 [Compound 321388] ; wanted: its IC50 > 300 µM

# input molecule: Oc1cccc(CN2CCc3nc(-c4ccccn4)nc(O)c3C2)c1 [Compound 321526] ; wanted: its IC50 3.5 µM

# input molecule: Oc1nc(-c2ccccn2)nc2c1CN(Cc1ccc(F)cc1)CC2 [Compound 321521] ; wanted: its IC50 2.4 µM

# input molecule: O=c1[nH]c(-c2ccccn2)nc2c1CN(Cc1ccc(Cl)cc1Cl)CC2 [Compound 323343] ; wanted: its IC50 8.24 µM

# input molecule: CN(C)Cc1cc(CN2CCc3nc(-c4ccccn4)[nH]c(=O)c3C2)ccc1O [Compound 323206] ; wanted: its IC50 > 300 µM

====

# Test system: bacterial protein synthesis (aminoacylation/translation system)
# assay.procedure: aminoacylation/translation (A/T) assay
# Format: biochemical
# recorded.conditions: A/T assay, Table 1; read-out: IC50
pIC50: −log10 of the molar value.
pIC50 of 5 or higher: TRUE. Under 5: FALSE.

Answer whether pIC50 of O=c1[nH]c(-c2ccccn2)nc2c1CN(Cc1ccc(Cl)cc1)CC2 is greater than or equal to 5. TRUE

Answer whether pIC50 of O=C1CCCN1c1ccc(CN2CCc3nc(-c4ccccn4)[nH]c(=O)c3C2)cc1 is greater than or equal to 5. TRUE

====

# Lookup of reported IC50 keyed by entry
# System: bacterial protein synthesis (aminoacylation/translation system)
# assay.procedure: aminoacylation/translation (A/T) assay
# Format: biochemical
# recorded.conditions: A/T assay, Table 1; read-out: IC50
Only the number, expressed in µM, is required.

# input molecule: Cc1cc(CN2CCc3nc(-c4ccccn4)[nH]c(=O)c3C2)cc(C)c1O [Compound 323204] ; wanted: its IC50 2.1

# input molecule: O=c1[nH]c(-c2cnccn2)nc2c1CN(Cc1ccc(Cl)cc1)CC2 [Compound 323354] ; wanted: its IC50 21.6

# input molecule: Clc1ccc(CN2CCc3nc(-c4ccccn4)ncc3C2)cc1 [Compound 323355] ; wanted: its IC50 32.1
